testProtocol: Determination of suramin in plasma and brain tissue after IP or IN administration
Type: in vivo, mice
experimentalParameters: male, Fmr1-knockout B6.129P2-Fmr1tm1Cgr/J, mouse, brain/plasma, other: intranasal, 100 mg/mL, one spray per nostril, Group 4: IN formulation 100 mg/mL, one spray per nostril, every other day for 28 days; read-out: Average Brain Tissue to Plasma Partitioning Ratio
readoutLabel: Kp
Answer using only a numeral; do not append any unit.

[Q] Answer with the recorded Kp of Cc1ccc(C(=O)Nc2ccc(S(=O)(=O)O)c3cc(S(=O)(=O)O)cc(S(=O)(=O)O)c23)cc1NC(=O)c1cccc(NC(=O)Nc2cccc(C(=O)Nc3cc(C(=O)Nc4ccc(S(=O)(=O)O)c5cc(S(=O)(=O)O)cc(S(=O)(=O)O)c45)ccc3C)c2)c1 only.
[A] 0.089

---

testProtocol: Determination of suramin in plasma and brain tissue after IP or IN administration
Type: in vivo, mice
experimentalParameters: male, Fmr1-knockout B6.129P2-Fmr1tm1Cgr/J, mouse, brain/plasma, other: intranasal, 100 mg/mL, one spray per nostril, Group 5: IN formulation 100 mg/mL, one spray per nostril, one time every week for 4 weeks; read-out: Average Brain Tissue to Plasma Partitioning Ratio
readoutLabel: Kp

[Q] Answer with the recorded Kp of Cc1ccc(C(=O)Nc2ccc(S(=O)(=O)O)c3cc(S(=O)(=O)O)cc(S(=O)(=O)O)c23)cc1NC(=O)c1cccc(NC(=O)Nc2cccc(C(=O)Nc3cc(C(=O)Nc4ccc(S(=O)(=O)O)c5cc(S(=O)(=O)O)cc(S(=O)(=O)O)c45)ccc3C)c2)c1 only.
[A] 0.235

The reported numbers originate from patent US20230390223A1.
